- assay protocol: Brain to blood partition coefficient, Kp of the compound in rat at 1 mg/kg, po administered as cassette dose
- Assay type: ADME, organism-based
Ranges used to classify Kp: bottom bin = under 0.04, middle bin = from 0.04 up to 0.2, top bin = 0.2 and over

CC(=O)C1=C(O)[C@@H]2Oc3c(O)ccc4c3[C@@]23CCN(CC2CC2)[C@H](C4)[C@]3(O)C1 :: top bin
Cc1nc(N)nc2c1C[C@@]1(O)[C@H]3Cc4ccc(O)c5c4[C@@]1(CCN3CC1CC1)[C@H]2O5 :: top bin
CCC(=O)C1=C(O)[C@@H]2Oc3c(O)ccc4c3[C@@]23CCN(CC2CC2)[C@H](C4)[C@]3(O)C1 :: top bin
O=C(Nc1ccccn1)C1=C(O)[C@@H]2Oc3c(O)ccc4c3[C@@]23CCN(CC2CC2)[C@H](C4)[C@]3(O)C1 :: middle bin
CC(C)(NC(=O)C1=C(O)[C@@H]2Oc3c(O)ccc4c3[C@@]23CCN(CC2CC2)[C@H](C4)[C@]3(O)C1)c1nc(-c2ccccc2)no1 :: bottom bin

Q: Categorize the following entry: CC(C)(NC(=O)C1=C(O)[C@@H]2Oc3c(O)ccc4c3[C@@]23CCN(CC2CC2)[C@H](C4)[C@]3(O)C1)C(=O)NS(C)(=O)=O
Result: bottom bin

Q: Please do the same for COC(=O)C(C)(C)NC(=O)C1=C(O)[C@@H]2Oc3c(O)ccc4c3[C@@]23CCN(CC2CC2)[C@H](C4)[C@]3(O)C1 as well.
Result: middle bin

Q: Please do the same for C[C@H](CO)NC(=O)C1=C(O)[C@@H]2Oc3c(O)ccc4c3[C@@]23CCN(CC2CC2)[C@H](C4)[C@]3(O)C1 as well.
Result: middle bin

----------
In this section we review reported remaining at 0.5 h, 0.5 µM values for a set of compounds.
- assay protocol: Stability in human microsomes assessed as parent compound remaining at 0.5 uM measured after 0.5 hrs
- Assay type: ADME, Microsome
- run parameters: read-out: Stability
Give the value in % but do not write % after it.

Q: If you can, please state the reported remaining at 0.5 h, 0.5 µM value of CC(=O)C1=C(O)[C@@H]2Oc3c(O)ccc4c3[C@@]23CCN(CC2CC2)[C@H](C4)[C@]3(O)C1 .
Result: 95

Q: Please do the same for COC(=O)C1(NC(=O)C2=C(O)[C@@H]3Oc4c(O)ccc5c4[C@@]34CCN(CC3CC3)[C@H](C5)[C@]4(O)C2)CC1 as well.
Result: 100

Q: Please do the same for CC(C)NC(=O)C1=C(O)[C@@H]2Oc3c(O)ccc4c3[C@@]23CCN(CC2CC2)[C@H](C4)[C@]3(O)C1 as well.
Result: 95

Q: Please do the same for O=C(O)c1ccc2c3c([nH]c2c1)[C@@H]1Oc2c(O)ccc4c2[C@@]12CCN(CC1CC1)[C@H](C4)[C@]2(O)C3 as well.
Result: 98

Q: Please do the same for O=C(NCc1ccccc1)C1=C(O)[C@@H]2Oc3c(O)ccc4c3[C@@]23CCN(CC2CC2)[C@H](C4)[C@]3(O)C1 as well.
Result: 94

----------
- test target: Delta-type opioid receptor (Homo sapiens, UniProt P41143)
- Sequence (P41143 whole entry): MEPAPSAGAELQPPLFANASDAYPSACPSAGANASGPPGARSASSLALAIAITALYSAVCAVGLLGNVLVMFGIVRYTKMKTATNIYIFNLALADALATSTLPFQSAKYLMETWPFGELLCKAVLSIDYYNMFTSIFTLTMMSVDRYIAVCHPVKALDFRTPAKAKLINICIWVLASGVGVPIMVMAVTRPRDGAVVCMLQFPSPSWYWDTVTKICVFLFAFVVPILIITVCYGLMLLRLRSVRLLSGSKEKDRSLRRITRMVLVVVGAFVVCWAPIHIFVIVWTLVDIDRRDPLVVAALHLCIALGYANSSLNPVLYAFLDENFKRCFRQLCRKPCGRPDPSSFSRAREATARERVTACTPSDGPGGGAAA
- assay protocol: Displacement of [3H]-DADLE from recombinant human delta-opioid receptor expressed in HEK293 cells
measured metric: pKi
# pKi: negative log10 of molar concentration; output just the value

COC(=O)C1(NC(=O)C2=C(O)[C@@H]3Oc4c(O)ccc5c4[C@@]34CCN(CC3CC3)[C@H](C5)[C@]4(O)C2)CC1 :: 8.01
CCC(=O)C1=C(O)[C@@H]2Oc3c(O)ccc4c3[C@@]23CCN(CC2CC2)[C@H](C4)[C@]3(O)C1 :: 8.00
CC(C)(NC(=O)C1=C(O)[C@@H]2Oc3c(O)ccc4c3[C@@]23CCN(CC2CC2)[C@H](C4)[C@]3(O)C1)C(=O)O :: 7.93

// moving on: another record for pKi
Q: If you can, please state the reported pKi value of O=C(O)c1ccc2c3c([nH]c2c1)[C@@H]1Oc2c(O)ccc4c2[C@@]12CCN(CC1CC1)[C@H](C4)[C@]2(O)C3 .
Result: 9.21

----------
- test target: Mu-type opioid receptor (Homo sapiens)
- Sequence (P35372 whole entry): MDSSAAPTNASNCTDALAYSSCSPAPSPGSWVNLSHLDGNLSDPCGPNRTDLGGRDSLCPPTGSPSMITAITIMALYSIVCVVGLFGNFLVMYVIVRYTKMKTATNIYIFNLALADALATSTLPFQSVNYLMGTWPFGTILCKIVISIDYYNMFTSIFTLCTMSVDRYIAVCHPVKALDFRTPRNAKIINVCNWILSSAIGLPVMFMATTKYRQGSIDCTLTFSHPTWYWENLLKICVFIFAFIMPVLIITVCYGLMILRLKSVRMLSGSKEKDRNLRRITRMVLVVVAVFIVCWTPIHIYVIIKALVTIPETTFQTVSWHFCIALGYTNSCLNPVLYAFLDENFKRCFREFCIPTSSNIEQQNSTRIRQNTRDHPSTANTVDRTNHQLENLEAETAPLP
- assay protocol: Displacement of [3H]-DAMGO from recombinant human mu-opioid receptor expressed in CHOK1 cells
measured metric: pKi
# pKi: negative log10 of molar concentration; output just the value

Sample answers from the record:
Cc1nc(N)nc2c1C[C@@]1(O)[C@H]3Cc4ccc(O)c5c4[C@@]1(CCN3CC1CC1)[C@H]2O5 :: 8.07
O=C(Nc1ccccn1)C1=C(O)[C@@H]2Oc3c(O)ccc4c3[C@@]23CCN(CC2CC2)[C@H](C4)[C@]3(O)C1 :: 8.01
Cc1noc(C(C)(C)NC(=O)C2=C(O)[C@@H]3Oc4c(O)ccc5c4[C@@]34CCN(CC3CC3)[C@H](C5)[C@]4(O)C2)n1 :: 8.14

Q: If you can, please state the reported pKi value of COC(=O)C(C)(C)NC(=O)C1=C(O)[C@@H]2Oc3c(O)ccc4c3[C@@]23CCN(CC2CC2)[C@H](C4)[C@]3(O)C1 .
Result: 7.78

----------
- assay protocol: Brain to blood partition coefficient, Kp of the compound in rat at 1 mg/kg, po administered as cassette dose
- Format: ADME, organism-based
In this section we review reported Kp values for a set of molecules.
Answer with a number only.

Sample answers from the record:
Cc1noc(C(C)(C)NC(=O)C2=C(O)[C@@H]3Oc4c(O)ccc5c4[C@@]34CCN(CC3CC3)[C@H](C5)[C@]4(O)C2)n1 :: 0.04
O=C(NCc1ccccc1)C1=C(O)[C@@H]2Oc3c(O)ccc4c3[C@@]23CCN(CC2CC2)[C@H](C4)[C@]3(O)C1 :: 0.17
Cc1n[nH]c2c1C[C@@]1(O)[C@H]3Cc4ccc(O)c5c4[C@@]1(CCN3CC1CC1)[C@H]2O5 :: 0.25
O=C(O)c1ccc2c3c([nH]c2c1Cl)[C@@H]1Oc2c(O)ccc4c2[C@@]12CCN(CC1CC1)[C@H](C4)[C@]2(O)C3 :: 0.03
O=C(C1=C(O)[C@@H]2Oc3c(O)ccc4c3[C@@]23CCN(CC2CC2)[C@H](C4)[C@]3(O)C1)N1CCCC1 :: 0.22

Q: If you can, please state the reported Kp value of COC(=O)C1(NC(=O)C2=C(O)[C@@H]3Oc4c(O)ccc5c4[C@@]34CCN(CC3CC3)[C@H](C5)[C@]4(O)C2)CC1 .
Result: 0.06

Q: Please do the same for CC(C)(NC(=O)C1=C(O)[C@@H]2Oc3c(O)ccc4c3[C@@]23CCN(CC2CC2)[C@H](C4)[C@]3(O)C1)C(=O)O as well.
Result: 0.04

----------
- assay protocol: Stability in human microsomes assessed as parent compound remaining at 0.5 uM measured after 0.5 hrs
- Assay type: ADME, Microsome
- run parameters: read-out: Stability
measured metric: remaining at 0.5 h, 0.5 µM (%)
Give the value in % but do not write % after it.

N#Cc1ccc(NC(=O)C2=C(O)[C@@H]3Oc4c(O)ccc5c4[C@@]34CCN(CC3CC3)[C@H](C5)[C@]4(O)C2)cc1 :: 103
Cc1n[nH]c2c1C[C@@]1(O)[C@H]3Cc4ccc(O)c5c4[C@@]1(CCN3CC1CC1)[C@H]2O5 :: 98
CC(C)(NC(=O)C1=C(O)[C@@H]2Oc3c(O)ccc4c3[C@@]23CCN(CC2CC2)[C@H](C4)[C@]3(O)C1)C(=O)NS(C)(=O)=O :: 104

Q: If you can, please state the reported remaining at 0.5 h, 0.5 µM value of Cc1noc(C(C)(C)NC(=O)C2=C(O)[C@@H]3Oc4c(O)ccc5c4[C@@]34CCN(CC3CC3)[C@H](C5)[C@]4(O)C2)n1 .
Result: 92

Q: Please do the same for CCC(=O)C1=C(O)[C@@H]2Oc3c(O)ccc4c3[C@@]23CCN(CC2CC2)[C@H](C4)[C@]3(O)C1 as well.
Result: 85

Q: Please do the same for O=C(Nc1ccccn1)C1=C(O)[C@@H]2Oc3c(O)ccc4c3[C@@]23CCN(CC2CC2)[C@H](C4)[C@]3(O)C1 as well.
Result: 98

Q: Please do the same for O=C(C1=C(O)[C@@H]2Oc3c(O)ccc4c3[C@@]23CCN(CC2CC2)[C@H](C4)[C@]3(O)C1)N1CCCC1 as well.
Result: 99

Q: Please do the same for CC(C)(NC(=O)C1=C(O)[C@@H]2Oc3c(O)ccc4c3[C@@]23CCN(CC2CC2)[C@H](C4)[C@]3(O)C1)c1nc(-c2ccccc2)no1 as well.
Result: 73

Q: Please do the same for COC(=O)C(C)(C)NC(=O)C1=C(O)[C@@H]2Oc3c(O)ccc4c3[C@@]23CCN(CC2CC2)[C@H](C4)[C@]3(O)C1 as well.
Result: 101
